B1: ZBED3 (parent)
chain: GPGFHAGTSALWRHLRSAHRRELE

Variants of: B1
test_protocol: protein stability index of a GFP-peptide fusion (GPS, HEK-293T) (PSI 1-6); higher = more stable;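 note: lentivirally expressed fusions sorted by FACS into six bins by GFP to DsRed ratio, PSI derived from sequencing read proportions per bin multiplied by bin number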
experimental_conditions: c terminus: a fixed tail appended
Would you mind telling me the reported protein stability index of each entry?
Answers are plain numbers.

Some solved entries appear below for comparison.
GPGFHAGTSALWRHLRSAYRRELE [H19Y] | 2.5
GPGFHAQTSALWRHLRSAHRRELE [G7Q] | 2.47
GPGFHAGTSHLWRHLRSAHRRELE [A10H] | 2.63

For every item below, please supply its protein stability index.
1. GPGFHAGTSALWRHLYSAHRRELE [R16Y]
2. GPGFHAGTSALWRHLRSATRRELE [H19T]
3. GPGFHAGTSALWRHLRSAHSRELE [R20S]
4. GPYFHAGTSALWRHLRSAHRRELE [G3Y]

Result block:
1.75
2.14
1.86
3.36
